- Test system: Escherichia coli TOP10
- PROCEDURE_TEXT: shrunken log2 fold change of peptide-encoding DNA abundance (4.5 h post-induction vs induction); higher = less antimicrobial activity (less host growth inhibition)
- EXPERIMENTAL_PARAMETERS: time post-induction: 4.5 h; library: site-saturation at positions 5, 18, 19, 20
MEASURED_PROPERTY: shrunken log2 fold change

# shrunken log2 fold change lookup, item RRIRIRPPRLPRPRPRPHGWPRP 0.0102

Now consider RRIRIRPPRLPRPRPRPNCSPRP and answer again. -0.175

Try RRIRCRPPRLPRPRPRPNPTPRP next. 0.211

---

- Test system: Escherichia coli TOP10
- PROCEDURE_TEXT: shrunken log2 fold change of peptide-encoding DNA abundance (4.5 h post-induction vs induction); higher = less antimicrobial activity (less host growth inhibition)
- EXPERIMENTAL_PARAMETERS: time post-induction: 4.5 h; library: site-saturation at positions 5, 18, 19, 20
I would appreciate it if you labelled entries TRUE when shrunken log2 fold change is -0.2 or higher, otherwise FALSE.

Given the entry RRIRERPPRLPRPRPRPVDPPRP , answer whether its shrunken log2 fold change meets or surpasses -0.2. FALSE

// query: RRIRERPPRLPRPRPRPHDRPRP TRUE

Try the sequence RRIRARPPRLPRPRPRPLYTPRP TRUE

Note, next up: RRIRMRPPRLPRPRPRPSHFPRP FALSE

// query: RRIRTRPPRLPRPRPRPCAGPRP TRUE

---

- Tested on: Escherichia coli TOP10
- PROCEDURE_TEXT: shrunken log2 fold change of peptide-encoding DNA abundance (4.5 h post-induction vs induction); higher = less antimicrobial activity (less host growth inhibition)
- EXPERIMENTAL_PARAMETERS: time post-induction: 4.5 h; library: site-saturation at positions 5, 18, 19, 20
Answer each item with its documented shrunken log2 fold change.
Form field (numeric): enter value without unit.

Would you mind telling me what shrunken log2 fold change value was observed for RRIRVRPPRLPRPRPRPVEPPRP ? 0.218

For RRIRARPPRLPRPRPRPTDKPRP then? 0.391

What do you get for RRIRVRPPRLPRPRPRPMRHPRP ? -0.00914

Same again, this time with RRIRIRPPRLPRPRPRPYKVPRP -0.385

Another sequence: RRIRRRPPRLPRPRPRPNPTPRP 0.0244

Check RRIRDRPPRLPRPRPRPMYRPRP too. -0.0107

# iterate: RRIRQRPPRLPRPRPRPYLAPRP -0.21

Same for RRIRPRPPRLPRPRPRPIELPRP -0.0296

Moving on to RRIRFRPPRLPRPRPRPEQGPRP 0.313

Try this sequence next: RRIRMRPPRLPRPRPRPWNDPRP -0.112

Further, for RRIRGRPPRLPRPRPRPNCRPRP ? 0.0979

Entry RRIRIRPPRLPRPRPRPWNFPRP please -0.00674

Now consider RRIRNRPPRLPRPRPRPWMSPRP and answer again. -0.0131

Can you check RRIRERPPRLPRPRPRPRYHPRP next? -0.0105

Another: RRIRKRPPRLPRPRPRPYTFPRP -0.264

// repeat for RRIRHRPPRLPRPRPRPAIHPRP and report -0.303

// query: RRIRWRPPRLPRPRPRPMPCPRP 0.113

Let us now turn to RRIRDRPPRLPRPRPRPNQSPRP -0.527

Request: RRIRMRPPRLPRPRPRPQNWPRP 0.532

Next record, please: RRIRNRPPRLPRPRPRPQGVPRP 0.0991

Please answer likewise for RRIRKRPPRLPRPRPRPKAWPRP -0.0159

Now consider RRIRTRPPRLPRPRPRPQEPPRP and answer again. -0.0583

Moving on to the next sequence: RRIRHRPPRLPRPRPRPSSHPRP -1.3

Entry to check: RRIRCRPPRLPRPRPRPFQRPRP -0.418

And the next one, RRIRYRPPRLPRPRPRPQCGPRP ? -0.46

Then this sequence: RRIRERPPRLPRPRPRPSDCPRP 0.00151

What do we get for RRIRKRPPRLPRPRPRPARDPRP ? 1.1

Queued: RRIRMRPPRLPRPRPRPGVKPRP 0.172

Same read-out for RRIRDRPPRLPRPRPRPSPFPRP ? -0.0929

Then this sequence: RRIRMRPPRLPRPRPRPDKFPRP 0.194

Do the same for RRIRMRPPRLPRPRPRPQSYPRP please 0.00618

What would you report for RRIRWRPPRLPRPRPRPKTRPRP ? 0.654

Now give it for RRIRTRPPRLPRPRPRPYWLPRP too. -0.486

Proceed to RRIRERPPRLPRPRPRPEQMPRP -6.54e-05

Now this one: RRIRQRPPRLPRPRPRPNPVPRP -0.117

# iterate: RRIRSRPPRLPRPRPRPVDVPRP 0.126

Check RRIRMRPPRLPRPRPRPWRIPRP too. -0.0845

Now this one: RRIRMRPPRLPRPRPRPSQSPRP 0.53

Check RRIRPRPPRLPRPRPRPCLRPRP too. -0.183

Param item: RRIRGRPPRLPRPRPRPMLYPRP 0.322

// next record RRIRTRPPRLPRPRPRPLCQPRP -0.0705

Please do the same for RRIRARPPRLPRPRPRPNIAPRP as well. 0.464

Subsequent entry: RRIRHRPPRLPRPRPRPYIFPRP -0.446

Now try RRIRCRPPRLPRPRPRPIIVPRP . -0.425

Item: RRIRERPPRLPRPRPRPHHGPRP -0.43

And what about the sequence RRIRMRPPRLPRPRPRPNRKPRP ? -0.0954

Same thing, different sequence: RRIRWRPPRLPRPRPRPECHPRP 0.563

---

- Test system: Escherichia coli TOP10;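 also: peptides expressed intracellularly from a pBAD plasmid library in pooled LB shake-flask culture, induced with 0.3% L-arabinose, DNA abundance read by NGS, three biological replicates, DESeq2 with apeglm shrinkage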
- PROCEDURE_TEXT: shrunken log2 fold change of peptide-encoding DNA abundance (4.5 h post-induction vs induction); higher = less antimicrobial activity (less host growth inhibition)
- EXPERIMENTAL_PARAMETERS: time post-induction: 4.5 h; library: site-saturation at positions 5, 18, 19, 20
Kindly state shrunken log2 fold change for each of the entries shown.
Response field accepts a number only; no unit should be typed.

Give the reported shrunken log2 fold change for RRIRERPPRLPRPRPRPLKDPRP (system: Escherichia coli TOP10). -0.0646

Try this sequence next: RRIRFRPPRLPRPRPRPLADPRP -0.0773

Continue with RRIRFRPPRLPRPRPRPLGPPRP 0.148

Also, RRIRRRPPRLPRPRPRPYVTPRP please. -0.383

Next record, please: RRIRQRPPRLPRPRPRPIVAPRP -0.00611

One more sequence: RRIRQRPPRLPRPRPRPYVPPRP -0.157

// next record RRIRWRPPRLPRPRPRPIISPRP -0.14

Next entry: RRIRMRPPRLPRPRPRPWGGPRP 0.414

And RRIRPRPPRLPRPRPRPPRFPRP ? 0.557

Next up: RRIRMRPPRLPRPRPRPEGAPRP 3.32

# iterate: RRIRTRPPRLPRPRPRPATKPRP 0.0756

Could you do the same for RRIRERPPRLPRPRPRPIYWPRP , please? -0.0719

Next: RRIRQRPPRLPRPRPRPMALPRP 0.00414

Also, RRIRLRPPRLPRPRPRPGTCPRP please. 0.0703

Would you mind doing RRIRTRPPRLPRPRPRPCLFPRP as well? -0.16

Quick one: RRIRVRPPRLPRPRPRPLSFPRP -0.426

What about RRIRQRPPRLPRPRPRPNCHPRP ? -0.548

Moving on to RRIRLRPPRLPRPRPRPLLEPRP -0.0263

Check RRIRDRPPRLPRPRPRPFGSPRP too. 0.0468

Subsequent entry: RRIRPRPPRLPRPRPRPKYSPRP -0.55

Note, next up: RRIRLRPPRLPRPRPRPNCVPRP 0.138

Item: RRIRCRPPRLPRPRPRPWVHPRP -0.169

For RRIRQRPPRLPRPRPRPRTKPRP then? 0.0706

Also RRIRDRPPRLPRPRPRPICIPRP ? 0.0464

Now consider RRIRFRPPRLPRPRPRPYGRPRP and answer again. -0.0926

Same for RRIRQRPPRLPRPRPRPITSPRP -0.0775

One more sequence: RRIRERPPRLPRPRPRPHTPPRP 0.229

Moving on to RRIRGRPPRLPRPRPRPATHPRP 0.862

Again, but for RRIRNRPPRLPRPRPRPWSFPRP -0.538

Try this sequence too: RRIRQRPPRLPRPRPRPGINPRP -0.296

Thanks! And RRIRVRPPRLPRPRPRPTHFPRP ? -0.266

Moving on to RRIRQRPPRLPRPRPRPHPIPRP -0.133

Likewise for RRIRFRPPRLPRPRPRPAYTPRP ? -0.876

Proceed to RRIRQRPPRLPRPRPRPILGPRP 0.0906

Please answer likewise for RRIRMRPPRLPRPRPRPHQFPRP -0.0236

Entry to check: RRIRFRPPRLPRPRPRPLIQPRP -0.289

Then what about the sequence RRIRYRPPRLPRPRPRPTGEPRP ? -0.0166

What would you report for RRIRFRPPRLPRPRPRPHVYPRP ? -0.0438

How about this sequence: RRIRIRPPRLPRPRPRPRAIPRP -0.356

Also need RRIRKRPPRLPRPRPRPQFIPRP , thanks. -0.0823

Same question for RRIRFRPPRLPRPRPRPNQNPRP please. -0.443

Now this one: RRIRHRPPRLPRPRPRPDDCPRP -0.00674

Can you check RRIRIRPPRLPRPRPRPSFEPRP next? -0.507

Next: RRIRFRPPRLPRPRPRPNQVPRP -1.05

Next record, please: RRIRKRPPRLPRPRPRPCPMPRP -0.15

Please do the same for RRIRDRPPRLPRPRPRPASDPRP as well. 0.0114

Next record, please: RRIRDRPPRLPRPRPRPNGVPRP -0.0244

Cool, now RRIRERPPRLPRPRPRPLVYPRP -0.309

One more sequence: RRIRKRPPRLPRPRPRPHSDPRP 0.0765

How about RRIRRRPPRLPRPRPRPSTFPRP ? -0.02

Now consider RRIRKRPPRLPRPRPRPALKPRP . 0.48

Again, but for RRIRDRPPRLPRPRPRPTTAPRP 1.3

Here is the next sequence: RRIRFRPPRLPRPRPRPFELPRP -0.0457

Can you handle RRIRLRPPRLPRPRPRPESPPRP next? 0.124

Please do the same for RRIRNRPPRLPRPRPRPSWFPRP as well. -0.398

Note, next up: RRIRARPPRLPRPRPRPWKTPRP -0.0874
